assay: Cytotoxicity against human HepG2 cells assessed as rate of ATP content at 30 uM after 1 day by ATPLite-M assay relative to control; assay type: cell-based; conditions: read-out: Activity
Measure Name: viability at 24 h, 30 µM (%)
Numeric only. Scale: %

CCCN(CCC)c1ccc(C#N)c2nc(Nc3c(C)cc(Cl)cc3OC)n(C)c12    83

Problem: Report viability at 24 h, 30 µM for CCCN(CCC)c1cc(C)nc2c(-c3cnc(N(C)C)cc3C)c(C)nn12 please.
Result: 51

Problem: Report viability at 24 h, 30 µM for CCCN(CCC)c1cccc2nc(Nc3c(C)cc(C)cc3C)n(-c3ccccc3)c12 please.
Result: 32

Problem: Report viability at 24 h, 30 µM for CCN(CC)c1ccc(OC)c2nc(Nc3c(C)cc(Cl)cc3OC)n(C)c12 please.
Result: 5

Problem: Report viability at 24 h, 30 µM for CCN(CC)c1ccc(-c2ccccc2)c2nc(Nc3c(C)cc(Cl)cc3OC)n(C)c12 please.
Result: 92

Problem: Report viability at 24 h, 30 µM for CCCCN(CCCC)c1cccc2nc(Nc3c(C)cc(Br)cc3OC)n(C)c12 please.
Result: 90

Problem: Report viability at 24 h, 30 µM for CCN(CC)c1ccc(C)c2nc(Nc3c(C)cc(Cl)cc3OC)n(C)c12 please.
Result: 72

Problem: Report viability at 24 h, 30 µM for CCCN(CCC)c1cccc2nc(Nc3c(C)cc(C)cc3C)sc12 please.
Result: 75

Problem: Report viability at 24 h, 30 µM for CCCN(CCC)c1cccc2nc(Nc3c(C)cc(Cl)cc3C(C)C)n(C)c12 please.
Result: 28

Problem: Report viability at 24 h, 30 µM for CCCN(CCC)c1cccc2nc(Nc3c(C)cccc3C)n(C)c12 please.
Result: 72

Problem: Report viability at 24 h, 30 µM for CCCN(CCC)c1cccc2nc(Nc3c(C)cc(C)cc3C)n(C)c12 please.
Result: 89

---

target: Corticotropin-releasing factor receptor 1 (Homo sapiens, UniProt P34998); test: Displacement of [125I]-CRF from human CRF1 receptor expressed in CHO cellular membrane fraction after 1.5 hrs by liquid scintillation counting method
Sequence (P34998 whole entry): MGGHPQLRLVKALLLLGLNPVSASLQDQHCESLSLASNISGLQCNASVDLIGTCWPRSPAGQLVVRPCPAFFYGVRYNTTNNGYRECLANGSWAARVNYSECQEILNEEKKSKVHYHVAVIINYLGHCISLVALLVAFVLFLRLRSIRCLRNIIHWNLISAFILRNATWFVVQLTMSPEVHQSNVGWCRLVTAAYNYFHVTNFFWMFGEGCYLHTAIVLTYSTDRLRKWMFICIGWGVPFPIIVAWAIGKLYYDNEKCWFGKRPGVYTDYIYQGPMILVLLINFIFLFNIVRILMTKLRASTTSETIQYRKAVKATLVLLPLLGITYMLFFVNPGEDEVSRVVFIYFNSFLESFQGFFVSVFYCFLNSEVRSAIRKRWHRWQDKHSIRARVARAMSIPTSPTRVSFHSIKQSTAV
Listed here: items and their measured IC50.
Numeric only. Scale: nM

The examples below pair each entry with its known result.
CCCN(CCC)c1cccc2nc(Nc3c(C)cc(C)cc3C)n(-c3ccccc3)c12    2200
CCN(CC)c1cccc2nc(Nc3c(C)cc(Br)cc3OC)n(C)c12    13
CCCN(CCC)c1cccc2nc(Nc3c(C)cccc3C)n(C)c12    140

Could you now look at the following compound, please?
Problem: # query: IC50 | item CCCN(CCC)c1cccc2nc(Nc3c(C)cc(Br)cc3OC)n(C)c12 | system: Corticotropin-releasing factor receptor 1 (Homo sapiens, UniProt P34998)
Result: 12

---

assay: Cytotoxicity against human HepG2 cells assessed as rate of ATP content at 30 uM after 1 day by ATPLite-M assay relative to control; format: cell-based; conditions: read-out: Activity
Listed here: items and their measured viability at 24 h, 30 µM.

CCCN(CCC)c1cccc2nc(Nc3ccc(C)cc3C)n(C)c12    79%
CCN(c1cccc2nc(Nc3c(C)cc(Br)cc3OC)n(C)c12)C(C)C    87%
CCCN(CCC)c1cccc2nc(Nc3c(C)cc(C)cc3C)[nH]c12    41%

Could you now look at the following molecule, please?
Problem: Report viability at 24 h, 30 µM for CCCN(CCC)c1c(Cl)ccc2nc(Nc3c(C)cc(Cl)cc3OC)n(C)c12 please.
Result: 86%
